Source of measurements: patent US7611713

# test.target: HLA-A*0201 (human)
observable: binding affinity ratio (IC50 of standard peptide / IC50 of test peptide)
Give the figure by itself; no unit, no explanation.

Guide cases for binding affinity ratio (IC50 of standard peptide / IC50 of test peptide), answers given:
SVRFSWLSLL (modifications not checked) [HBV ENV 330 peptide …] = 0.0004
STLPETTVV (modifications not checked) [HBV NUC 141 peptide …] = 0.0019
QLLWFHISCL (modifications not checked) [HBV NUC 99 peptide … (peptide 1142.03)] = 0.006

Enquiry: Entry under review: SLNFMGYVI (modifications not checked) [HBV POL 581 peptide …] . Reported binding affinity ratio (IC50 of standard peptide / IC50 of test peptide)?
Return: 0.0038
